Test system: RPMI-8226 leukemia
experiment-notes: NCI-60 one-dose screen, 48 h (100 = growth as untreated, 0 = no growth, -100 = all killed)
test-conditions: 10 µM
The panel holds about 83,000 compounds, 20% with a hit somewhere; the sample as a whole holds those more often.
So basically: growth at 70% or higher? That is t. Lower than 70%? That is f.

growth >= 70% for C=C(C)[C@@H]1CC[C@]2(COP(=O)(OCC)OCC)CC[C@]3(C)[C@H](CC[C@@H]4[C@@](C)(CCCN)[C@H](C(=C)C)CC[C@]43C)[C@@H]12 ?
f

Proceed to CCC(C)S(=O)(=O)c1oc(-c2ccc(C)cc2)nc1S(=O)(=O)c1ccccc1 (stereo not drawn)
f

Moving on to the next molecule: O=C(Nc1ccccc1)Nc1nc2ccccc2s1
t

What would you report for COc1ccc(OC)c(/C=N/NC(=O)c2ccc3nc(-c4ccc(Cl)cc4)[nH]c3c2)c1 ?
f

Entry C/C(=C\CSc1ccccc1C(=O)O)CCCC(C)CCCC(C)CCCC(C)C (stereo not drawn) please
f

// same read-out, input: C=C[C@H]1[C@H](O[C@@H]2OC(CO)[C@@H](O)[C@H](O)C2OC(=O)c2c(O)cc(O)cc2-c2cccc(O)c2)OC=C2C(=O)OCC[C@H]21 (stereo partly drawn)
t

// query: COc1ccc2[nH]c(=O)c(CSc3ccc(Nc4nccc(-c5ccc(Cl)cc5)n4)cc3)cc2c1
t

====

Test system: DU-145 prostate
experiment-notes: NCI-60 one-dose screen, 48 h (100 = growth as untreated, 0 = no growth, -100 = all killed)
test-conditions: 10 µM
About 83,000 compounds went through this panel and 20% of them were active in at least one assay; those are over-represented in the sample as a whole.
property-measured: growth (%)
Express the result in % but write the number alone.

Query (compound): CN(C)c1cccc2c(S(=O)(=O)Nc3cccc(-c4csc(NC(=O)CCCCCN5CCN(c6cc7c(cc6F)C(=O)N(C6CCC(=O)NC6=O)C7=O)CC5)n4)c3)cccc12 (configuration not stated) ; field requested: growth
97.2

Item: Nc1n[nH]c2cccc(C#Cc3cccc(NC(=O)Nc4cc(C(F)(F)F)cc(C(F)(F)F)c4)c3)c12
7.02

For Cc1ccc(NCC(=O)Nn2c(COc3ccccc3)nc3ccccc3c2=O)cc1 then?
85.9

Try this compound too: CN1CCN(c2ccc(C(=O)/C=C/c3ccc(C#N)cc3)cc2)CC1
82.1

Now this one: CCN1CCN(Cc2ccc(NC(=O)c3cccc(-n4cc(-c5ccc(NC(C)=O)nc5)nn4)c3)cc2C(F)(F)F)CC1
104

Thanks! And CCCSc1nc(NC2CC2)c(C#N)c(-c2ccc(OC)cc2)n1 ?
98.1

Further, for COc1ccc(C(=O)CSc2nnc(-c3c[nH]c4ccccc34)n2-c2ccccc2)cc1 ?
68.9

Same lookup for CCN1CCN(c2ccc(NC(=O)Nc3ccc(-c4cc(C(=O)NC(C)C)c5ncccc5n4)cc3)cc2C(F)(F)F)CC1 , please.
-54.9

And then O=c1[nH][nH]c(Nc2ccccc2)c1N=Nc1ccc(F)cc1 , what is it?
102

Continue with COc1ccc(-c2ccc(/C=N/NC(=O)c3[nH]c4ccc(Br)cc4c3-c3ccccc3)s2)cc1
104

Repeat for the following compound: Nc1nc2c(F)c(F)c(F)c(F)c2s1
114

Please do the same for COc1ccc(-c2nc(S(=O)(=O)c3ccc(C)cc3)c(S(C)(=O)=O)o2)cc1 as well.
-99.1

Could you do the same for Nc1nc(Nc2ccc(Cl)cc2)n(Cc2cccc(Br)c2)n1 , please?
12.1

Entry to check: COc1ccc(/C(C)=N/N=C2C(=O)N(C)c3ccc(Br)cc32)cc1S(N)(=O)=O
86.1

Cool, now COc1ccc2[nH]cc(/C=N/Nc3cccc(Cl)n3)c2c1
64.4

O=C(Nc1nc2ccc([N+](=O)[O-])cc2s1)Nc1cc(Cl)ccc1I , same question.
17.3

And what about the compound COc1ccc(/C(CSc2nnc(-c3c[nH]c4ccccc34)n2-c2ccccc2)=N/O)cc1 ?
43

Here is the next compound: [2H]C([2H])([2H])Oc1ccc2ncc(C#Cc3cncc(C(=O)Nc4ccc(CN5CCN(C)CC5)c(C(F)(F)F)c4)c3)n2n1
-98.8

Request: O=C(CN1CCN(c2ncnc3c2cnn3-c2ccccc2)CC1)Nc1nncs1
-96.1

And the next one, COc1ccccc1[C@H]1C(C(=O)c2ccc(Cl)cc2)C2(N[C@@H]1c1ccccc1)C(=O)Nc1ccc(Cl)cc12 (some centres not stated) ?
10.5

Query COc1ccc2[nH]c(=O)c(CSc3ccc(Nc4nccc(-c5ccc(Cl)cc5)n4)cc3)cc2c1 next
111

Cool, now O=C(c1ccc(O)cc1)C1[C@H](c2ccc(Br)cc2)[C@@H](c2ccccc2)NC12C(=O)Nc1ccc(Br)cc12 (some centres not stated)
9.58

What would you report for Cc1cccc2cc(-c3cc(-c4ccccc4)nc(=S)[nH]3)c(Cl)nc12 ?
104

Then this compound: CC1=N/C(=C\c2ccc(N(C)C)cc2)C(=O)N1CCc1ccc(S(N)(=O)=O)cc1
112

Input Cc1ccc2nc(COc3ccc(C(=O)NNC(=S)NC(=O)c4ccccc4)cc3)[nH]c2c1
64.7

Same read-out for COc1cccc(COc2ccc(/C=C3\Oc4cc(O)ccc4C3=O)cc2)c1 ?
31.8

Next compound: O=C1Nc2ccc(Cl)cc2/C1=C/c1cccc(OCc2ccccn2)c1
6.01
